Let's go through some IC50 measurements on Mu-type opioid receptor (Cavia porcellus, UniProt P97266) together.
Sequence (P97266 whole entry): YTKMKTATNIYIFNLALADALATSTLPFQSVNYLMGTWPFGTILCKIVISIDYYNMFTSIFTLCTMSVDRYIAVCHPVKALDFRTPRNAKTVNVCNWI
quantity.name: IC50 (µM)

{"compound": "CC[C@H](C)[C@H](NC(=O)[C@H](CCCN=C(N)N)NC(=O)[C@H](CCCN=C(N)N)NC(=O)[C@H](CC(C)C)NC(=O)[C@H](Cc1ccccc1)NC(=O)CNC(=O)CNC(=O)[C@@H](N)Cc1ccc(O)cc1)C(=O)N[C@@H](CCCN=C(N)N)C(=O)N1CCC[C@H]1C(=O)NC(CCCCN)C(N)=O (stereo in doubt)", "unit.text": "µM", "observed": 0.0099}
{"compound": "CC[C@H](C)[C@@H]1NC(=O)[C@H](CCCN=C(N)N)NC(=O)[C@H](CCCN=C(N)N)NC(=O)[C@H](NC(=O)[C@H](Cc2ccccc2)NC(=O)CNC(=O)CNC(=O)[C@@H](N)Cc2ccc(O)cc2)C(C)(C)SSC[C@H](C(N)=O)NC(=O)[C@@H]2CCCN2C(=O)[C@H](CCCN=C(N)N)NC1=O", "unit.text": "µM", "observed": 0.0511}
{"compound": "CC[C@H](C)[C@@H]1NC(=O)[C@H](CCCN=C(N)N)NC(=O)[C@H](CCCN=C(N)N)NC(=O)[C@H](NC(=O)[C@H](Cc2ccccc2)NC(=O)CNC(=O)CNC(=O)[C@@H](N)Cc2ccc(O)cc2)CSSC(C)(C)[C@H](C(N)=O)NC(=O)[C@@H]2CCCN2C(=O)[C@H](CCCN=C(N)N)NC1=O", "unit.text": "µM", "observed": 0.108}
